Parameter: EC50. Scope: all listed entries.
# Test system: Leishmania amazonensis
# assayComment: Anti-promastigote activity against Leishmania amazonensis (IFLA/BR/67/PH8) assessed as promastigote growth inhibition incubated for 72 hrs by microscopic analysis
# Format: functional, organism-based
# reportedConditions: Leishmania amazonensis, IFLA/BR/67/PH8, 72 h
Return type: number; implicit unit µM.

// below: answered molecules
smilesString: COc1ccc2nc3cc(Cl)ccc3c(Nc3sc4c(c3C(N)=O)CCCC4)c2c1
EC50 / µM: 31.8
--
smilesString: CCOC(=O)c1c(Nc2c3ccc(Cl)cc3nc3ccc(OC)cc23)sc2c1CCCC2
EC50 / µM: 51.4

# evaluate next
Query :: Lab note: need EC50 with Leishmania amazonensis for entry CCOC(=O)c1c(Nc2c3ccc(Cl)cc3nc3ccc(OC)cc23)sc2c1CCCCC2 , please look it up.
Result :: 26.6
